Target: COX-1 (Ovis aries, UniProt P05979)
Construct: purchased Cayman chemicals, USA
Sequence (P05979 25-600): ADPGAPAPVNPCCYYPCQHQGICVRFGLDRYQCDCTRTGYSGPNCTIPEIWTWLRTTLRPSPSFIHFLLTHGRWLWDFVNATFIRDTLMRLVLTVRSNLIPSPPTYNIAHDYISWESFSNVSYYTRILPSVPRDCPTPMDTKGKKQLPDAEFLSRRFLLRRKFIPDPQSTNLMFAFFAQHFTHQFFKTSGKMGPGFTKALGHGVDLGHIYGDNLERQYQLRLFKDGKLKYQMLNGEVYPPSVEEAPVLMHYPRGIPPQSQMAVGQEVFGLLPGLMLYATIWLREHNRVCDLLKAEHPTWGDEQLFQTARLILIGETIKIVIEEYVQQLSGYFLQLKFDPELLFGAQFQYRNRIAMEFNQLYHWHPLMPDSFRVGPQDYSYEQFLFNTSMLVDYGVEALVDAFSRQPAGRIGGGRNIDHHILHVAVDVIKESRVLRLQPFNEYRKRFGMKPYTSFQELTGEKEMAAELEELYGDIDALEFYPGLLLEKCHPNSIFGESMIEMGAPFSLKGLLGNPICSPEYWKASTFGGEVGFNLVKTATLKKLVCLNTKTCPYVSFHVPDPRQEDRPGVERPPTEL
Assay: In vitro cyclooxygenase inhibitory assay (Cayman colorimetric COX (ovine) inhibitor screening kit), COX-1
Format: biochemical
Conditions: concentration of 2.0 μM; read-out: COX-1 (%) inhibition
Collected inhibition at 2 µM values appear next to each entry.
Provide only the numeric value, understood in %.

{"columns": ["compound", "experimental-target", "measured-number"],
 "data": [
  ["CCC(C)[C@@H](C(=O)Nc1cc(C)ccn1)N(C(=O)c1ccccc1)S(=O)(=O)c1ccc(C)cc1 (some centres unmarked)", "COX-1 (Ovis aries, UniProt P05979)", 17],
  ["Cc1ccc(S(=O)(=O)N(CC(=O)Nc2cc(C)ccn2)C(=O)c2ccccc2)cc1", "COX-1 (Ovis aries, UniProt P05979)", 3],
  ["Cc1ccnc(NC(=O)[C@H](CC(C)C)N(C(=O)c2ccccc2)S(=O)(=O)c2ccc([N+](=O)[O-])cc2)c1", "COX-1 (Ovis aries, UniProt P05979)", 10]
]}

(Q) Suppose we examine the compound "Cc1ccc(S(=O)(=O)N(C(=O)c2ccccc2)[C@@H](Cc2cc3ccccc3[nH]2)C(=O)Nc2cc(C)ccn2)cc1" ; what inhibition at 2 µM value has been reported?
(A) 3

(Q) Record request: inhibition at 2 µM value, item "Cc1ccc(S(=O)(=O)N(C(=O)c2ccccc2)[C@@H](CC(C)C)C(=O)Nc2cc(C)ccn2)cc1"
(A) 20

(Q) Looking for the measured inhibition at 2 µM of "Cc1ccnc(NC(=O)[C@H](C(C)C)N(C(=O)c2ccccc2)S(=O)(=O)c2ccc([N+](=O)[O-])cc2)c1" , can you help?
(A) 15

(Q) What value of measured inhibition at 2 µM is listed for CCC(C)[C@@H](C(=O)Nc1cc(C)ccn1)N(C(=O)c1ccccc1)S(=O)(=O)c1ccc([N+](=O)[O-])cc1 (some centres unmarked) ?
(A) 4

(Q) Which measured inhibition at 2 µM value corresponds to "Cc1ccc(S(=O)(=O)N(C(=O)c2ccccc2)[C@H](C(=O)Nc2cc(C)ccn2)C(C)C)cc1" ?
(A) 32

(Q) May I ask what inhibition at 2 µM has been recorded for "Cc1ccnc(NC(=O)[C@H](Cc2ccccc2)N(C(=O)c2ccccc2)S(=O)(=O)c2ccc([N+](=O)[O-])cc2)c1" ?
(A) 8

(Q) # lookup: inhibition at 2 µM of "Cc1ccc(S(=O)(=O)N(C(=O)c2ccccc2)[C@@H](Cc2ccccc2)C(=O)Nc2cc(C)ccn2)cc1"
(A) 10

(Q) Entry under review: "Cc1ccnc(NC(=O)CN(C(=O)c2ccccc2)S(=O)(=O)c2ccc([N+](=O)[O-])cc2)c1" . Reported inhibition at 2 µM?
(A) 14
